- Assay overview: small-molecule microarray binders of probe aEGFR, primary screen, biochemical, biotinylated probe, 635/667 nm fluorescence (AID 1097);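 note: probe is a biotinylated anti-EGFR antibody binding compounds printed on slides; score combines fluorescence near 667 nm and signal to noise of each spot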
- Condition description: higher = more signal
Kindly state composite z-score for each of the entries shown.
Number only, no unit.

Reported composite z-score for C[C@@H]1CC[C@H]2C(=O)OC(Cc3ccccc3)CN2[C@H]1c1ccc(Br)cc1 (some centres not stated) was -0.133

Reported composite z-score for CCOC(=O)[C@H](Cc1ccccc1)NC(=O)CCC1CC(OC(=O)NCc2ccc3c(c2)OCO3)CC2(CCCC(COC(=O)NCCOC)O2)O1 (some centres not stated) was 0.0059

Reported composite z-score for COC(=O)[C@@H]1CC[C@H](C)[C@@H](c2ccc(Br)cc2)N1C[C@@H](O)CN=[N+]=[N-] was -0.0902

Reported composite z-score for CCN1C(=O)[C@H]2[C@H]3[C@H](O)[C@H](O)CC(=NO[C@@H]4O[C@H](COC(C)=O)[C@@H](OC(C)=O)[C@H](OC(C)=O)[C@H]4OC(C)=O)[C@@H]3CC[C@H]2C1=O was 0.0091

Reported composite z-score for CC(C)CON=C1C[C@@H](O)[C@@H](O)[C@@H]2[C@@H]3C(=O)N(C(C)(C)C)C(=O)[C@@H]3CC[C@@H]12 was -0.0638

Reported composite z-score for C[C@H]1CC[C@H]2C(=O)OC(COc3ccc(C(C)(C)C)cc3)CN2[C@@H]1c1ccc(Br)cc1 (some centres not stated) was -0.175

Reported composite z-score for CCOC(=O)CCN1C(=O)[C@H]2[C@H]3[C@H](O)[C@H](O)CC(=NNC(=O)OCc4ccccc4)[C@H]3CC[C@H]2C1=O was -0.103

###

- System: wheat germ agglutinin (Triticum aestivum), Alexa647-labelled
- Assay overview: wheat germ agglutinin binders on compound microarrays, profiling panel, artefact control for SMM control-protein annotation, biochemical, small-molecule microarray, 635/667 nm fluorescence (AID 1140);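 note: score merges 667 nm feature emission with signal to noise over triplicate slides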
- Condition description: WGA-A647 binding, 635 nm fluorescence, higher = more signal
Kindly state composite z-score for each of the entries shown.
Number only, no unit.

Reported composite z-score for CC(CCN1CCCc2nc(C)c(C)cc21)=NOC[C@@H](O)COCc1ccco1 was -0.949

Reported composite z-score for CSCC[C@@H]1NC(=O)CC=C[C@@H](C)COC(=O)[C@H](C)COC1=O was -0.663

Reported composite z-score for CCO[C@H](c1cc(OC)cc([N+](=O)[O-])c1OC)[C@H](C)[C@@H](OC)[C@H](C)C=CCC(=O)OC was 0.298

Reported composite z-score for CC(C)CON=C1C[C@@H](O)[C@@H](O)[C@@H]2[C@@H]3C(=O)N([C@@H](C)c4ccccc4)C(=O)[C@@H]3CC[C@@H]12 was 0.252

Reported composite z-score for C[C@@H]1C=CCC(=O)OC[C@H](C)C(=O)N[C@@H](Cc2ccccc2)C(=O)OC1 was 0.0031

Reported composite z-score for COc1ccc(OC[C@@H]2CC3[C@@H](c4ccc(Br)cc4)[C@H](C)CC[C@H]3C(=O)O2)cc1 (stereo partly drawn) was 0.282

Reported composite z-score for CC(C)=CCCC(C)=CCON=C1C[C@@H](O)[C@@H](O)[C@@H]2[C@@H]3C(=O)N(Cc4ccc5c(c4)OCO5)C(=O)[C@@H]3CC[C@H]12 was 0.793

Reported composite z-score for CCOC(=O)[C@H](CC(C)C)NC(=O)CCC1CC(OC(=O)NCCc2ccc(F)cc2)CC2(CCCC(COC(=O)NCc3cccc4ccccc34)O2)O1 (stereo partly drawn) was 0.0787

###

- System: Human papillomavirus type 1a E7 protein (residues 1-88)
- Assay overview: HPV1a E7 small-molecule binders, primary screen, biochemical, small-molecule microarray, residues 1-88, 635 nm (AID 1129)
- Condition description: small-molecule microarray binding, fluorescence 635 nm; higher = more signal
Kindly state composite z-score for each of the entries shown.
Number only, no unit.

Reported composite z-score for CC1(C)O[C@H]2OC([C@H](O)CON3C(=O)c4ccccc4C3=O)[C@H](O)[C@H]2O1 (some centres undefined) was -0.103

Reported composite z-score for C[C@@H]1CC[C@H]2C(=O)N3[C@@H](CC[C@@H](C)[C@@H]3c3ccc(Br)cc3)C(=O)N2[C@H]1c1ccc(Br)cc1 was -0.0695

Reported composite z-score for COc1ccc(COC(=O)NN=C2C[C@@H](O)[C@@H](O)[C@@H]3[C@@H]4C(=O)N([C@@H](C)c5ccccc5)C(=O)[C@@H]4CC[C@@H]23)cc1 was 0.661

Reported composite z-score for C[C@]12CCC3c4ccc(OCC5CO5)cc4CCC3C1CC[C@@H]2O (some centres undefined) was 1.14

Reported composite z-score for C#CCCCON=C1C[C@@H](O)[C@@H](O)[C@@H]2[C@@H]3C(=O)N(C[C@@H]4CCCO4)C(=O)[C@@H]3CC[C@H]12 was 0.508

Reported composite z-score for CCOC(=O)CCN1C(=O)[C@H]2[C@@H]3C(=CC[C@H]2C1=O)C(=O)[C@H]1O[C@H]1[C@H]3O was -0.307

Reported composite z-score for CCOC(=O)[C@H](Cc1ccccc1)NC(=O)CCC1CC(OC(=O)NCCc2ccc(F)cc2)CC2(CCCC(COC(=O)NCCC(C)C)O2)O1 (some centres undefined) was 1.12

Reported composite z-score for CO[C@@H]1C=CCC(=O)N[C@@H](C)C(=O)OC[C@@H](OC)[C@H](C)C=CCC(=O)OC[C@H]1C was -0.724

Reported composite z-score for C=CC[C@@H]1C=C[C@H](ON=C[C@@H](NS(=O)(=O)c2ccc(C)cc2)[C@H](C)C=CCC(=O)OC)[C@@H](CO)O1 was -0.205

###

- Target desc: Homeobox protein Hox-A13 (Mus musculus) (UniProt Q62424)
- Sequence (Q62424 whole entry, looked up): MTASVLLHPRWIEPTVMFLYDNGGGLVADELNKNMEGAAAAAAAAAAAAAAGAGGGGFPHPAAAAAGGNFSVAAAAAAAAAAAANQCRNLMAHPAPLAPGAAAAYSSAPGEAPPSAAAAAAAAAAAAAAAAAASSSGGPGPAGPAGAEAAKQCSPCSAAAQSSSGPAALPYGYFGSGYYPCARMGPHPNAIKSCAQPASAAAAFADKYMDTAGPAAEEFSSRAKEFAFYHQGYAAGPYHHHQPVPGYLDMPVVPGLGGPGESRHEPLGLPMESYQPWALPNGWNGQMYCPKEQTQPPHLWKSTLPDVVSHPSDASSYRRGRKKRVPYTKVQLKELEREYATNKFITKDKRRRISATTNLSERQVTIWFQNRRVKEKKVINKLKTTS
- Assay overview: inhibitors of HoxA13-DNA binding, primary screen, biochemical, fluorescence polarization, labeled oligonucleotide (AID 1185)
- Condition description: 15 min, higher = more signal, called active from +8 up or from −8 down
Activity calls are given as the source filed them.
Test readout: z-score

Per the reported Homeobox protein Hox-A13 (Mus musculus) (UniProt Q62424) data, O=C1[C@H]2[C@H]3[C@H](O)[C@H](O)CC(=NO[C@@H]4O[C@H](CO)[C@@H](O)[C@H](O)[C@H]4O)[C@@H]3CC[C@H]2C(=O)N1C1CCCCC1 has z-score of 0.719 (inactive)

Per the reported Homeobox protein Hox-A13 (Mus musculus) (UniProt Q62424) data, O=C1C2=CC[C@H]3C(=O)N(Cc4ccccc4)C(=O)[C@H]3[C@H]2[C@H](O)[C@@H]2O[C@H]12 has z-score of -5.55 (inactive)

Per the reported Homeobox protein Hox-A13 (Mus musculus) (UniProt Q62424) data, O=C1[C@H]2[C@H]3[C@H](O)[C@H](O)CC(=NOC[C@@H](O)COCc4ccco4)[C@@H]3CC[C@H]2C(=O)N1C1CCCCC1 has z-score of -4.42 (inactive)

Per the reported Homeobox protein Hox-A13 (Mus musculus) (UniProt Q62424) data, CC(CCN1CCCc2nc(C)c(C)cc21)=NO[C@@H](C)c1cn([C@H](CO)Cc2ccccc2)nn1 has z-score of -0.829 (inactive)

Per the reported Homeobox protein Hox-A13 (Mus musculus) (UniProt Q62424) data, O=C(NN=C1C[C@@H](O)[C@@H](O)[C@@H]2[C@@H]3C(=O)N(Cc4ccccc4)C(=O)[C@@H]3CC[C@H]12)OCc1ccccc1 has z-score of -0.2 (inactive)

Per the reported Homeobox protein Hox-A13 (Mus musculus) (UniProt Q62424) data, C#CCCCON=C1C[C@@H](O)[C@@H](O)[C@@H]2[C@@H]3C(=O)N(C[C@@H]4CCCO4)C(=O)[C@@H]3CC[C@@H]12 has z-score of 0.866 (inactive)

Per the reported Homeobox protein Hox-A13 (Mus musculus) (UniProt Q62424) data, CC(CCC(=O)OC[C@H]1O[C@H](C#Cc2ccccc2)C=C[C@@H]1Oc1ccc(C)cc1)=NO[C@H](C)c1cn([C@@H]2COC[C@H]2O)nn1 has z-score of -4.04 (inactive)

###

- Target desc: E3 ubiquitin-protein ligase XIAP (Homo sapiens) (UniProt P98170)
- Sequence (P98170 whole entry, looked up): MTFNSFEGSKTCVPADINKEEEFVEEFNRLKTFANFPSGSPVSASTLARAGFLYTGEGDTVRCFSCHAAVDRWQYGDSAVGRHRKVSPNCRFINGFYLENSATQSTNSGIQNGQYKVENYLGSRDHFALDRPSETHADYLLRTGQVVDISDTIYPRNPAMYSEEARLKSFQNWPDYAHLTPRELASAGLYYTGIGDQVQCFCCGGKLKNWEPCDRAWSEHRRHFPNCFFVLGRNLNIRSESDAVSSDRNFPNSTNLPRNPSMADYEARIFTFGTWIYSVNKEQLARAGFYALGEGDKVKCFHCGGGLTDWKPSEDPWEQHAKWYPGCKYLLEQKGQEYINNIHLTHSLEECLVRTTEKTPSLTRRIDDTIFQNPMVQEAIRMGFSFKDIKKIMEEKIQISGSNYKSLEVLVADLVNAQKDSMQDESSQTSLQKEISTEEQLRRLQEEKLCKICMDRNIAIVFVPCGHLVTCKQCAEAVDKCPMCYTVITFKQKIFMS
- Assay overview: XIAP binders, primary screen, biophysical, small-molecule microarray, fluorescence 635 nm (AID 1181);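 note: score merges 667 nm emission and signal to noise over triplicate slides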
- Condition description: small-molecule microarray binding, higher = more signal
Please enter T where composite z-score is greater than or equal to -0.1, and F where it is lower.

**Query** Kindly determine if composite z-score recorded for CC(C)=NOC[C@@H](O)[C@H]1O[C@@H]2OC(C)(C)O[C@@H]2[C@H]1O is above or exactly -0.1.
**Result** F

**Query** Kindly determine if composite z-score recorded for CC(=O)OC[C@H]1O[C@@H](ON=C2[C@H]3CCn4c(=O)n(-c5ccccc5)c(=O)n4[C@H]3[C@H](O)[C@@H]3O[C@H]23)[C@H](OC(C)=O)[C@@H](OC(C)=O)[C@@H]1OC(C)=O is above or exactly -0.1.
**Result** F

**Query** Kindly determine if composite z-score recorded for CCOC(=O)[C@H](CC(C)C)NC(=O)CCC1CC(OC(=O)NCc2ccc3c(c2)OCO3)CC2(CCCC(COC(=O)NCCC(C)C)O2)O1 (stereo partly specified) is above or exactly -0.1.
**Result** T

**Query** Kindly determine if composite z-score recorded for C[C@@H]1CC[C@H]2C(=O)OC(CN3C(=O)c4ccccc4C3=O)CN2[C@H]1c1ccc(Br)cc1 (stereo partly specified) is above or exactly -0.1.
**Result** T

**Query** Kindly determine if composite z-score recorded for C=C(C)C(=O)OC[C@H]1CN2[C@@H](CC[C@@H](C)[C@@H]2c2ccc(Br)cc2)C(=O)O1 is above or exactly -0.1.
**Result** T

**Query** Kindly determine if composite z-score recorded for CC(C)[C@@H](OCc1ccccc1)[C@H](C)CON=C1[C@H]2CCn3c(=O)n(-c4ccccc4)c(=O)n3[C@H]2[C@H](O)[C@@H]2O[C@H]12 is above or exactly -0.1.
**Result** F

**Query** Kindly determine if composite z-score recorded for CC(C)CON=C1[C@H]2CCn3c(=O)n(C)c(=O)n3[C@H]2[C@H](O)[C@@H]2O[C@H]12 is above or exactly -0.1.
**Result** F

**Query** Kindly determine if composite z-score recorded for O=C1C=C[C@@H](O)[C@@H]2[C@@H]3C(=O)N(Cc4ccc5c(c4)OCO5)C(=O)[C@@H]3CC[C@@H]12 is above or exactly -0.1.
**Result** T

**Query** Kindly determine if composite z-score recorded for O=C(NN=C1C[C@@H](O)[C@@H](O)[C@@H]2[C@@H]3C(=O)N(Cc4ccc5c(c4)OCO5)C(=O)[C@@H]3CC[C@@H]12)OCc1ccccc1 is above or exactly -0.1.
**Result** F

**Query** Kindly determine if composite z-score recorded for O=C1[C@H]2[C@H]3[C@H](O)[C@H](O)CC(=NOCc4ccccc4)[C@@H]3CC[C@H]2C(=O)N1c1cccc(Oc2ccccc2)c1 is above or exactly -0.1.
**Result** F
